These data points were gathered from patent US20220363665A1.

Molecular target: human TLR9 (Homo sapiens)
Experiment: HEK293-Blue-hTLR-9 cells assay (SEAP reporter, ODN2006 stimulation)
Settings: HEK293-Blue-hTLR9 cells, ODN2006, 20 hrs
pIC50: recorded values
Conceptually, pIC50 converts a concentration in mol/L into minus its log10.

Known pIC50 results, listed for orientation:
molecule: C[C@@H]1CN(c2ccc(C(F)(F)F)c3ncccc23)C[C@H](C(=O)NC2C3CCCC2CNC3)O1 (stereo partly shown) [Example 45]
system_name: human TLR9 (Homo sapiens)
pIC50: 4.94
//
molecule: C[C@@H]1CN(c2ccc(C(F)(F)F)c3ncccc23)C[C@H](C(=O)NC2C3CNCC2COC3)O1 (single isomer, unassigned) [Example 46B]
system_name: human TLR9 (Homo sapiens)
pIC50: 4.82

In the following, a different molecule is considered.
# get_value(readout= pIC50, system= human TLR9 (Homo sapiens)) for C#Cc1ccc(N2C[C@@H](C)O[C@@H](C(=O)NC3CCN(C)CC3)C2)c2cccnc12 [Example 43]
4.91

----------
Molecular target: human TLR9 (Homo sapiens, UniProt Q9NR96)
Sequence (Q9NR96 26-1032): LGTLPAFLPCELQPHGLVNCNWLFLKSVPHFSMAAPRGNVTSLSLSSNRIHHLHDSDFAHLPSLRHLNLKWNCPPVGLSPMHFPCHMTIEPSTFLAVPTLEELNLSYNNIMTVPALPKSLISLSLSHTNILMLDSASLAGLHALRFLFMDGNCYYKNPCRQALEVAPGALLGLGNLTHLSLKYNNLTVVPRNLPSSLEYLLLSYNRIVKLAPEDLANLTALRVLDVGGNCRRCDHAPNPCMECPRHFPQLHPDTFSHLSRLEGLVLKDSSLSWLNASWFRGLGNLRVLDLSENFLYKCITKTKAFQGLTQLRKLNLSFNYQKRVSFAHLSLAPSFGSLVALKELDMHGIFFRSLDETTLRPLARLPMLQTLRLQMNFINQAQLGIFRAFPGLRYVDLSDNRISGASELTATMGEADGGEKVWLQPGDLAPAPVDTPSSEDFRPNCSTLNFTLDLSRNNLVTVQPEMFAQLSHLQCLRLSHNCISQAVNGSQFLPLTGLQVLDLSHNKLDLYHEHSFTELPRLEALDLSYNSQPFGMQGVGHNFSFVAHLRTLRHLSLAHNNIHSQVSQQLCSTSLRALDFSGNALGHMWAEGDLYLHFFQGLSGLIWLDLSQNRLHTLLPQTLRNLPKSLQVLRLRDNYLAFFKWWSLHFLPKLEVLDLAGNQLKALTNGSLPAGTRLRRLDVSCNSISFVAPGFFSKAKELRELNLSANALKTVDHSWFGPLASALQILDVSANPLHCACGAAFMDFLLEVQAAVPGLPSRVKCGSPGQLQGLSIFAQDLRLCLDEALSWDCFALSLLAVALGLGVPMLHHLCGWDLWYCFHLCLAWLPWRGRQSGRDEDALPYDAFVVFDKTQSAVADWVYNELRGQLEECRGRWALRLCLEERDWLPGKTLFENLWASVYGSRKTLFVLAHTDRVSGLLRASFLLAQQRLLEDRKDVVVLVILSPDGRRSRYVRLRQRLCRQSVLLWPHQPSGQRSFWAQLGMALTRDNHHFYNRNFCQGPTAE
Assay: HEK293-Blue-hTLR-9 cells assay (SEAP reporter, ODN2006 stimulation)
Conditions: HEK293-Blue-hTLR9 cells, ODN2006, 20 hrs
Just so you know, the groups by IC50 go like this: low end: < 10 µM; middle: ≥ 10 µM and < 30 µM; high end: ≥ 30 µM

Previously resolved entries follow.
compound: C[C@@H]1CN(c2ccc(C(F)(F)F)c3ncccc23)C[C@H](C(=O)NC2CCCNCC2)O1 (stereo partly drawn) [Example 8]
discrete_label: middle
--
compound: C[C@@H]1CN(c2ccc(C(F)(F)F)c3ncccc23)C[C@H](C(=O)NC2CC3CCC(C2)N3)O1 (single isomer, unassigned) [Example 47B]
discrete_label: middle
--
compound: C[C@@H]1CN(c2ccc(I)c3ncccc23)C[C@H](C(=O)NC2CCN(C)CC2)O1 [Example 38]
discrete_label: low end

Class label required: C[C@H]1C[C@@H](N)CN(c2ccc(C(F)(F)F)c3ncccc23)C1 [Example 1]
low end

Class label required: C[C@@H]1CN(c2ccc(I)c3ncccc23)C[C@H](C(=O)NCC2CN(C)CCO2)O1 (stereo partly drawn) [Example 39]
high end

Class label required: C[C@@H]1CN(c2ccc(C(F)(F)F)c3ncccc23)C[C@H](C(=O)NCC2COCCN2C)O1 (stereo partly drawn) [Example 11]
high end

Class label required: C[C@@H]1CN(c2ccc(C(F)(F)F)c3ncccc23)C[C@H](C(=O)N2CC(N)C2)O1 [Example 7]
high end

Class label required: C[C@@H]1CN(c2ccc(Cl)c3ncccc23)C[C@H](C(=O)NC2CCCNCC2)O1 (stereo partly drawn) [Example 25]
middle

Class label required: C[C@@H]1CN(c2ccc(C(F)(F)F)c3ncccc23)C[C@H](C(=O)NCC2CNCC2(F)F)O1 (stereo partly drawn) [Example 29]
high end

----------
Biological target: human TLR8 (Homo sapiens)
Sequence (Q9NR97 27-1041): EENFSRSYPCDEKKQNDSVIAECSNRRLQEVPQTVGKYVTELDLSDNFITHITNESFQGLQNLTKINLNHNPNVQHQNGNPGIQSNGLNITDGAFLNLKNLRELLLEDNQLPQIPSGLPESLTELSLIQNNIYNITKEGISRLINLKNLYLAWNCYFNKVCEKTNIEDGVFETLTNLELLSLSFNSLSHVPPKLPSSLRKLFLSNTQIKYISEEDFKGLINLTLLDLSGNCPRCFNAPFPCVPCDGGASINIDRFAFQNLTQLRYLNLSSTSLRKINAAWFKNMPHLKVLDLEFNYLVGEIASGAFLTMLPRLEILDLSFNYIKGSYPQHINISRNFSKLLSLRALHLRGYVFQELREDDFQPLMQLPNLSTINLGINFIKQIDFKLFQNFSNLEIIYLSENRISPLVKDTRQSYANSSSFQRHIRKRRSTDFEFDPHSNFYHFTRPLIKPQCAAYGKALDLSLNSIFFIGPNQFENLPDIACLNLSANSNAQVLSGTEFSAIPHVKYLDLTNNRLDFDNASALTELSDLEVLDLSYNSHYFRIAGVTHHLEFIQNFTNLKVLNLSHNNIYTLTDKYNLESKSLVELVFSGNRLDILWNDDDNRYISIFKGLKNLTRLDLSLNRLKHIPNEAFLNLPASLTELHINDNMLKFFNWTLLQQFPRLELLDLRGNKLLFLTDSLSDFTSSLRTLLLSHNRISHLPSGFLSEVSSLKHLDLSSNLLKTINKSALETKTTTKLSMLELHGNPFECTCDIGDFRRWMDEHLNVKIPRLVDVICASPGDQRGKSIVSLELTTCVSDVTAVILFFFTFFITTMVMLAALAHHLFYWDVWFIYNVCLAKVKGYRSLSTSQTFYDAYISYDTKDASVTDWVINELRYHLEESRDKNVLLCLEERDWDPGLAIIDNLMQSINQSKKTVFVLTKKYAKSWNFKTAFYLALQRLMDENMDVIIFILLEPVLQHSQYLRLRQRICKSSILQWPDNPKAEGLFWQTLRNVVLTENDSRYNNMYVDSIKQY
Assay: HEK293-Blue-hTLR-8 cells assay (SEAP reporter, R848 stimulation)
Conditions: HEK293-Blue-hTLR8 cells, R848, 20 hrs
quantity_kind: IC50 (nM)
The response must be a number in nM with no trailing unit.

Known IC50 results, listed for orientation:
compound: Cc1ccc(N2C[C@@H](C)C[C@@H](N)C2)c2cccnc12
system_name: human TLR8 (Homo sapiens)
IC50 / nM: 15
//
compound: CC(NC(=O)[C@H]1CN(c2ccc(C(F)(F)F)c3ncccc23)C[C@@H](C)O1)C1CN(C)CCO1 (single isomer, unassigned) [Example 35A]
system_name: human TLR8 (Homo sapiens)
IC50 / nM: 6
//
compound: C[C@@H]1CN(c2ccc(C(F)(F)F)c3ncccc23)C[C@H](C(=O)NC2C3CNCC2COC3)O1 (single isomer, unassigned) [Example 46A]
system_name: human TLR8 (Homo sapiens)
IC50 / nM: 16
//
compound: C[C@@H]1CN(c2ccc(C(F)(F)F)c3ncccc23)C[C@H](C(=O)N2CC(N)C2)O1
system_name: human TLR8 (Homo sapiens)
IC50 / nM: 35
//
compound: C[C@@H]1CN(c2ccc(C(F)(F)F)c3ncccc23)C[C@H](C(=O)NC2CC3CCCC(C2)N3)O1 (single isomer, unassigned) [Example 34B]
system_name: human TLR8 (Homo sapiens)
IC50 / nM: 6

In the following, a different compound is considered.
Recorded IC50 of `C[C@@H]1CN(c2ccc(C(F)(F)F)c3ncccc23)C[C@H](C(=O)NC[C@@H]2C[C@@H](F)CN2)O1` , please.
21

----------
Target: UniProt Q9NR97
Assay: HEK293-Blue-hTLR-8 cells assay (SEAP reporter, R848 stimulation)
Conditions: HEK293-Blue-hTLR8 cells, R848, 20 hrs
quantity_kind: pIC50
Conceptually, pIC50 converts a concentration in mol/L into minus its log10.

molecule: C[C@@H]1CN(c2ccc(C(F)(F)F)c3ncccc23)C[C@H](C(=O)NCC2CCCCN2C)O1 (some centres unmarked)
measurement: 8.00
--
molecule: Cc1ccc(N2C[C@@H](C)O[C@@H](C(=O)N[C@@H]3CNC[C@@H]3F)C2)c2cccnc12
measurement: 8.05
--
molecule: C[C@@H]1CN(c2ccc(C(F)(F)F)c3ncccc23)C[C@H](C(=O)NC2CC3CNCC32)O1 (single isomer, unassigned) [Example 49B]
measurement: 8.05
--
molecule: Cc1ccc(N2C[C@@H](C)O[C@@H](C(=O)NC3CCN(C)CC3)C2)c2cccnc12
measurement: 8.10

Recorded pIC50 of `C[C@@H]1CN(c2ccc(C(F)(F)F)c3ncccc23)C[C@H](C(=O)NC[C@@H]2CC(F)(F)CN2)O1` , please.
6.89

Recorded pIC50 of Cc1ccc(N2C[C@@H](C)O[C@@H](C(=O)NCC3CN(C)CCO3)C2)c2cccnc12 (some centres unmarked) , please.
7.60

Recorded pIC50 of C[C@@H]1CN(c2ccc(C(F)(F)F)c3ncccc23)C[C@H](C(=O)NC2CC3CNCC32)O1 (single isomer, unassigned) [Example 49C] , please.
8.30

Recorded pIC50 of C[C@@H]1CN(c2ccc(C(F)(F)F)c3ncccc23)C[C@H](C(=O)NC2CC3CNCC32)O1 (single isomer, unassigned) [Example 49A] , please.
7.66

----------
Target: CYP2C9 (Homo sapiens)
Construct: tissue BD-Gentest 452117; host or cells: human liver microsomes
Sequence (P11712 whole entry): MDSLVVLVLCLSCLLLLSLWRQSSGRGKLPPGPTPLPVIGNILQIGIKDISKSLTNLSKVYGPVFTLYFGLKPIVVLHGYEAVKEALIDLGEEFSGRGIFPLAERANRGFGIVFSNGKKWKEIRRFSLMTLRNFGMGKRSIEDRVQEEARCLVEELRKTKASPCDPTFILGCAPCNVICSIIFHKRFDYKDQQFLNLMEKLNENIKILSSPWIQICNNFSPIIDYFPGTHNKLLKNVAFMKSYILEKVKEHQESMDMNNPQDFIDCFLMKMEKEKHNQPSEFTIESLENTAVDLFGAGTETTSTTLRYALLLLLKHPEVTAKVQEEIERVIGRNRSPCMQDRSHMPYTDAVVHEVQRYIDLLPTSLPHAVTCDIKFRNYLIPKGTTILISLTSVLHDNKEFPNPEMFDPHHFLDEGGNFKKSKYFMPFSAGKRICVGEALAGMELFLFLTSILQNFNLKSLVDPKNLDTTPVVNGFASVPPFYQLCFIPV
Assay: CYP inhibition assay in human liver microsome, CYP2C9
Type: in vitro ADME
Conditions: HLM, diclofenac substrate, 10 µM
CYP inhibition % @10 uM (2C9): recorded values
Answer format: value, then unit.

Known CYP inhibition % @10 uM (2C9) results, listed for orientation:
molecule: C[C@@H]1CN(c2ccc(C(F)(F)F)c3ncccc23)C[C@H](C(=O)NC2CC3CNCC32)O1 (single isomer, unassigned) [Example 49C]
measurement: 11%
//
molecule: C[C@@H]1CN(c2ccc(C(F)(F)F)c3ncccc23)C[C@H](C(=O)NC2CC3CCCC(C2)N3)O1 (single isomer, unassigned) [Example 34B]
measurement: −8%
//
molecule: C[C@@H]1CN(c2ccc(C(F)(F)F)c3ncccc23)C[C@H](C(=O)NC2CC3CCCC(C2)N3)O1 (single isomer, unassigned) [Example 34A]
measurement: −6%
//
molecule: C[C@@H]1CN(c2ccc(C(F)(F)F)c3ncccc23)C[C@H](C(=O)NC2CC3CNCC32)O1 (single isomer, unassigned) [Example 49A]
measurement: −1%
//
molecule: CC(NC(=O)[C@H]1CN(c2ccc(C(F)(F)F)c3ncccc23)C[C@@H](C)O1)C1CN(C)CCO1 (single isomer, unassigned) [Example 35B]
measurement: 6%

In the following, a different molecule is considered.
Recorded CYP inhibition % @10 uM (2C9) of C[C@@H]1CN(c2ccc(C(F)(F)F)c3ncccc23)C[C@H](C(=O)NC2CC3CNCC32)O1 (single isomer, unassigned) [Example 49B] , please.
−2%
